Recorded values, source the supplement of paper PMC10567573.

B1: VAMP4 (parent)
chain: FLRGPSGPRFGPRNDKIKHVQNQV

# Variants of: B1
# ASSAY_NOTES: protein stability index of a GFP-peptide fusion (GPS, HEK-293T) (PSI 1-6); higher = more stable;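 also: lentivirally expressed fusions sorted by FACS into six bins by GFP to DsRed ratio, PSI derived from sequencing read proportions per bin multiplied by bin number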
# CONDITIONS: c terminus: a fixed tail appended
protein stability index values, listed per item
Respond using a number only.

Please review the entries below; each comes with its answer.
SEQUENCE_INPUT: FLRGDSGPRFGPRNDKIKHVQNQV [P5D]
EXPERIMENTAL_VALUE: 3.36
//
SEQUENCE_INPUT: FLRGPSGPRFGPRNDKIKHVQNPV [Q23P]
EXPERIMENTAL_VALUE: 3.04
//
SEQUENCE_INPUT: YLRGPSGPRFGPRNDKIKHVQNQV [F1Y]
EXPERIMENTAL_VALUE: 2.52
//
SEQUENCE_INPUT: FLRGPSGPRFGPRNDKIKHVQVQV [N22V]
EXPERIMENTAL_VALUE: 1.74
//
SEQUENCE_INPUT: FLRGPSGPRFGPRNDKSKHVQNQV [I17S]
EXPERIMENTAL_VALUE: 2.34
//
SEQUENCE_INPUT: FLSGPSGPRFGPRNDKIKHVQNQV [R3S]
EXPERIMENTAL_VALUE: 3.3
//
SEQUENCE_INPUT: FFRGPSGPRFGPRNDKIKHVQNQV [L2F]
EXPERIMENTAL_VALUE: 3
//
SEQUENCE_INPUT: FLRGCSGPRFGPRNDKIKHVQNQV [P5C]
EXPERIMENTAL_VALUE: 2.48

Short answer for FLRGPSGPRFGPRNDKIKHVQAQV [N22A] : protein stability index was 2.58

Short answer for PLRGPSGPRFGPRNDKIKHVQNQV [F1P] : protein stability index was 4.07

Short answer for FLRGPSGPRFGPRNDKIKHVQNQS [V24S] : protein stability index was 2.9

Short answer for FLRGPSGPRFGPRNDKIKHVQHQV [N22H] : protein stability index was 2.18
